Where do these numbers come from? They come from ChEMBL document CHEMBL1155348.

# Measurement notes: Selectivity index, ratio of CC50 for african green monkey Vero cells to EC50 in Poliovirus
# Format: toxicity, cell-based
# Condition context: read-out: Ratio CC50/EC50
Give MET when the value for selectivity ratio is at least 1000. Give NOT MET when it is less.

The examples below pair each entry with its known result.
COc1ccc(/C=N/NC(=O)c2cc3c([nH]c4ccccc43)c(-c3ccccc3)n2)cc1 :: MET
CN(C)c1ccc(/C=N/NC(=O)c2cc3c([nH]c4ccccc43)c(-c3ccc(O)cc3)n2)cc1 :: NOT MET
CN(C)c1ccc(/C=N/NC(=O)c2cc3c([nH]c4ccccc43)c(-c3ccccc3)n2)cc1 :: MET
O=C(N/N=C/c1ccccc1)c1cc2c([nH]c3ccccc32)c(-c2ccccc2)n1 :: NOT MET

selectivity ratio >= 1000 for O=C(N/N=C/c1ccccc1)c1cc2c([nH]c3ccccc32)c(-c2ccc(O)cc2)n1 ?
MET
